Experiment: qHTS for Inhibitors of the Functional Ribonucleoprotein Complex (vRNP) of Lassa (LASV) Arenavirus: Viability assay - alamar blue signal for LASV Primary Screen (AID 1347083); further: nearly all actives have a fitted effect of over 80% in size
Details: cell viability, alamar blue fluorescence (LASV minigenome counter-screen); series mostly up to 57.5 µM
Inconclusive results are not listed. Active and inactive are the calls of the source. The call rests on the fitted dose curve; tested in HEK293 reporter line.
I would appreciate it if you answered using one of these outcomes: TRUE = active, FALSE = inactive

// known answers, use as guide
C=CCN1CC[C@]23c4c5ccc(O)c4O[C@H]2/C(=N/NC(=O)c2ccccc2)CC[C@@]3(O)[C@H]1C5 : FALSE
COc1ccc2c(c1)C13CCCCC1C(C2)N(C)CC3 (stereo not given) : FALSE
CC1=C2C[C@H]3[C@@H](CC=C4C[C@@H](O)CC[C@@]43C)[C@@H]2CC[C@]12O[C@@H]1C[C@H](C)CN[C@H]1[C@H]2C : FALSE

Check the results log: what was the call for "NCCCP(=O)(O)O" ?
FALSE

Follow-up item: "CN1CCc2cc(O)cc3c2[C@H]1Cc1ccc(O)c(O)c1-3"
FALSE

Follow-up item: "C[CH2][Hg][S]c1ccccc1C(=O)O"
FALSE

Follow-up item: NC(CCCCCP(=O)(O)O)C(=O)O (stereo not given)
FALSE

Follow-up item: COc1cc(CC(C)N)c(OC)cc1I (stereo not given)
FALSE

Follow-up item: C[C@@H]1O[C@@H](O[C@H]2C[C@@H](O)[C@]3(CO)[C@@H]4C(CC[C@]3(O)C2)[C@@]2(O)CC[C@H]([C@@H]3COC(=O)C3)[C@@]2(C)C[C@H]4O)[C@H](O)[C@H](O)[C@H]1O (stereo not given in full)
TRUE

Follow-up item: "CCCN(CCC)CCc1ccc(O)c(O)c1"
FALSE

---

Listed molecules paired with reported activity change % (negative = inhibition)
Molecular target: Thyroid hormone receptor beta (Homo sapiens) (UniProt P10828)
Sequence (P10828 whole entry, looked up): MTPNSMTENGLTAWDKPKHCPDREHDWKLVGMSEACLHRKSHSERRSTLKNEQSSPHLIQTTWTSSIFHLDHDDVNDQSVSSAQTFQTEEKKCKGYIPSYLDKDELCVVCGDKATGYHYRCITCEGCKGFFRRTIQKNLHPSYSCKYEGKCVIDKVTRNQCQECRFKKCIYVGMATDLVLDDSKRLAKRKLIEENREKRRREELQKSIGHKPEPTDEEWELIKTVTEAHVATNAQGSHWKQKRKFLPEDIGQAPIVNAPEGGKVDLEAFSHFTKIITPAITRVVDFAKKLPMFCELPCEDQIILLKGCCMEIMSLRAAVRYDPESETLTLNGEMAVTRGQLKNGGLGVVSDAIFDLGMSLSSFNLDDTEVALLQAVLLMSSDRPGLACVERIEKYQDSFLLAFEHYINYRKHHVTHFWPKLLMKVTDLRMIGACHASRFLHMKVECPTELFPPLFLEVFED
Experiment: qHTS assay for small molecule antagonists of thyroid hormone receptor beta signaling (AID 588547);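 further: cells stimulated with 0.4 nM T3 agonist during compound exposure; on the % scale 0 is the no-effect control and ±100 the full control effect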
Settings: TR-UAS-bla HEK293, beta-lactamase ratio, antagonist mode, 18 h
Source text: NIH Chemical Genomics Center [NCGC] U.S. Environmental Protection Agency [EPA] National Institutes of Environmental Health Sciences [NIEHS] National Toxicology Program [NTP] […] NCGC Assay Protocol Summary Using a beta-lactamase reporter-gene under control of the TR response element, a cell-based assay [GeneBLAzer TR-UAS-bla-GripTite assay developed by Invitrogen] was used to measure TR-beta signaling in antagonist mode. […] Detection; Fluorescence; Envision plate reader
Results filed as inconclusive are left out.
Write it as a number; the unit % goes unstated.

Some solved entries appear below for comparison.
CCCSP(=O)(OCC)SCCC : 4.95
O=CC=O : -1.9
O=C1CCO1 : 16.1

What reported activity change % (negative = inhibition) corresponds to "O=C1C=CC(=O)C=C1" on Thyroid hormone receptor beta (Homo sapiens) (UniProt P10828)?
-10.9

Follow-up item: "NNC(N)=O"
-12

Follow-up item: "O=C(O)c1cc[c]([Hg][Cl])cc1"
-18.8

---

Assay: Cell Viability - LYMP2-013 (AID 970);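 further: cells exposed to compound for 24 h at 37 °C; nearly all actives have a fitted effect of over 55% in size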
Settings: LYMP2-013 lymphoblastoid cells viability; series mostly up to 92.2 µM
Records with an inconclusive call do not appear. The source made the active and inactive calls. Calls follow the shape of the dose curve; as a rule, active = well fitted cell-killing curve with a large enough effect; inconclusive = small, poorly fitted or top-dose-only effect; inactive = flat fitted curve, though single readings scatter.
I would appreciate it if you answered using one of these outcomes: active, inactive

// known answers, use as guide
C[C@H]1CCC[C@H](O)CCCCCc2cc(O)cc(O)c2C(=O)O1 : inactive
Oc1cc(Cl)c(Cl)cc1Cl : inactive
CCOC(=O)c1ccccc1C(=O)OCC : inactive
O=[N+]([O-])c1ccccc1 : inactive

Check the results log: what was the call for C[C@H]1CC[C@@H]2[C@@H](C)[C@H]3[C@H](C[C@H]4[C@@H]5CC=C6CC(O[C@@H]7O[C@H](CO)[C@H](O)[C@H](O[C@@H]8O[C@H](CO)[C@@H](O)[C@H](O)[C@H]8O)[C@H]7O[C@H]7O[C@@H](C)[C@H](O)[C@@H](O)[C@H]7O)CC[C@]6(C)[C@H]5CC[C@]34C)N2C1 (stereo partly drawn) ?
active

Follow-up item: "[O]=[Cd]"
inactive

Follow-up item: "C[C@]12CCC(=O)C[C@@H]1CC[C@@H]1[C@@H]2CC[C@]2(C)[C@@H](O)CC[C@@H]12"
inactive

---

Test: Cellular Toxicity (caspase-3) Jurkat (AID 655);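 further: cells exposed to compound for 16 h at 37 °C before reading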
Details: Jurkat caspase-3 activation, luminescence; series mostly up to 92.2 µM
Records with an inconclusive call do not appear. Calls of active or inactive are those of the source. Calls come from the whole dose curve; as a rule, active = well fitted activation curve with a large enough effect; inconclusive = small, poorly fitted or top-dose-only effect; inactive = flat fitted curve, though single readings scatter.
I would appreciate it if you answered using one of these outcomes: t for active, f for inactive

// known answers, use as guide
[O]=[Cd] : f
COC1=CC(=O)O[C@@H](/C=C/c2ccccc2)C1 : f
CCCCCl : f

Check the results log: what was the call for "CC(C)Nc1ccc(Nc2ccccc2)cc1" ?
f

Follow-up item: "ClC(Cl)(Cl)Cl"
f

---

Assay: qHTS for differential inhibitors of proliferation of Plasmodium falciparum line D10 (AID 1877);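 further: parasites grown with compound for 72 h before DNA staining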
Settings: series mostly up to 28.7 µM
Results filed as inconclusive are left out. Active and inactive are the calls of the source. Calls follow the shape of the dose curve; as a rule, active = well fitted curve in the direction sought with a large enough effect; inconclusive = small, poorly fitted or top-dose-only effect, or another doubt; inactive = no such curve, though single readings can be large or run the other way.
I would appreciate it if you answered using one of these outcomes: true (1) for active, false (0) for inactive

Check the results log: what was the call for C=CCN1CCC23c4c5ccc(O)c4O[C@H]2C(=O)CC[C@@]3(O)C1C5 (stereo partly specified) ?
false (0)

Follow-up item: COc1cc(CC(C)N)c(OC)cc1I (stereo unspecified)
false (0)

Follow-up item: "CCn1cnc2c(Nc3cccc(Cl)c3)nc(N[C@@H]3CCCC[C@@H]3N)nc21"
true (1)

Follow-up item: CC(N)[C@H](O)c1ccc(O)c(O)c1 (stereo partly specified)
false (0)

Follow-up item: CCCCCCCCCCCCCC(=O)O[C@@H]1[C@@H](C)[C@@]2(O)[C@@H](C=C(CO)C[C@@]3(O)C(=O)C(C)=C[C@@H]23)C2C(C)(C)[C@@]21OC(C)=O (stereo partly specified)
true (1)

Follow-up item: "C[N+](C)(C)CC#CCN1CCCC1=O"
false (0)

Follow-up item: "CC(=O)NBr"
false (0)

Follow-up item: CC(N)c1cccc(Cl)c1Cl (stereo unspecified)
false (0)

Follow-up item: NC(C(=O)O)c1cc(=O)[nH]o1 (stereo unspecified)
false (0)

---

System: Zika virus NS2B-NS3 protease (unlinked complex)
Test: Primary screen GU Rhodamine qHTS for Zika virus inhibitors: Unlinked NS2B-NS3 protease assay (AID 1347159); further: on the % scale 0 is the no-effect control and ±100 the full control effect; nearly all actives have a fitted effect of over 60% in size
Details: Recombinant ZIKV NS2B-NS3 protease, Rhodamine110 substrate fluorescence; series mostly up to 107 µM
Inconclusive results are not listed. Active and inactive are the calls of the source. Calls follow the shape of the dose curve; as a rule, active = well fitted inhibition curve with a large enough effect; inconclusive = small, poorly fitted or top-dose-only effect; inactive = no such curve, though single readings can be large or run the other way.
I would appreciate it if you answered using one of these outcomes: active, inactive

C/C=C(\C)C(=O)OC1CC2C(CC=C3CC(OC4CC(OC)C(OC5CC(OC)C(OC6OC(C)C(OC7OC(CO)C(O)C(O)C7O)C(OC)C6O)C(C)O5)C(C)O4)CCC32C)C2(O)CCC(C(C)=O)C12C (configuration not stated) : inactive

Check the results log: what was the call for COC1C(O)C(OC2CCC3(C=O)C(CCC4C3CCC3(C)C(C5=CC(=O)OC5)CCC43O)C2)OC(C)C1OC1OC(CO)C(O)C(O)C1O (configuration not stated) ?
inactive

Follow-up item: C/C=C(\C)C(=O)OC1C(C)OC(OC2C(C)OC(OC3CCC4(C)C(=CCC5C4CCC4(C)C(C(C)OC6OC(COC7OC(CO)C(O)C(O)C7O)C(O)C(O)C6O)CCC54O)C3)CC2OC)C(O)C1OC (configuration not stated)
inactive

Follow-up item: "C1=C2CCCN[C@H]2[C@@H]2C[C@H]1[C@H]1CCCCN1C2"
inactive

---

Experiment: Cell Viability - N2a (AID 540);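 further: cells exposed to compound for 40 h at 37 °C; nearly all actives have a fitted effect of over 45% in size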
Conditions: N2a mouse neuroblastoma cell viability
Records with an inconclusive call do not appear. Activity calls are given as the source filed them. Calls come from the whole dose curve; as a rule, active = well fitted cell-killing curve with a large enough effect; inconclusive = small, poorly fitted or top-dose-only effect; inactive = flat fitted curve, though single readings scatter.
I would appreciate it if you answered using one of these outcomes: class 1 (active), class 0 (inactive)

// known answers, use as guide
Oc1cc(Cl)c(Cl)cc1Cl : class 1
S=C=S : class 0

Check the results log: what was the call for "NNC(N)=O" ?
class 0

---

Assay: Cell Viability - LYMP2-023 (AID 975);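 further: cells exposed to compound for 24 hours at 37 °C; nearly all actives have a fitted effect of over 55% in size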
Conditions: LYMP2-023 lymphoblastoid cell viability; series mostly up to 92.2 µM
Results filed as inconclusive are left out. Calls of active or inactive are those of the source. Calls come from the whole dose curve; as a rule, active = well fitted cell-killing curve with a large enough effect; inconclusive = small, poorly fitted or top-dose-only effect; inactive = flat fitted curve, though single readings scatter.
I would appreciate it if you answered using one of these outcomes: active, inactive

O=C/C=C/c1ccccc1 : inactive
CCOC(=O)c1ccccc1C(=O)OCC : inactive
CCCCCCCCOC(=O)c1ccccc1C(=O)OCCCCCCCC : inactive
CCCCCl : inactive
S=C=S : inactive

Check the results log: what was the call for "CC(C)CCON=O" ?
inactive

Follow-up item: "C=CCN=C=S"
inactive

Follow-up item: "O=C1CCO1"
inactive

Follow-up item: C[C@H]1CC[C@@H]2[C@@H](C)[C@H]3[C@H](C[C@H]4[C@@H]5CC=C6CC(O[C@@H]7O[C@H](CO)[C@H](O)[C@H](O[C@@H]8O[C@H](CO)[C@@H](O)[C@H](O)[C@H]8O)[C@H]7O[C@H]7O[C@@H](C)[C@H](O)[C@@H](O)[C@H]7O)CC[C@]6(C)[C@H]5CC[C@]34C)N2C1 (some centres not stated)
active

Follow-up item: "ClC=C(Cl)Cl"
inactive
